System: HL60 (Human promyelocytic leukemia cell line)
Assay: CellTiter Glo assay in HL60 cells
Type: cell-based
Conditions: HL-60, Table 5
pIC50: −log10 of the molar value.
Provide the recorded pIC50 for the entries that follow.

Value of measured pIC50 for the entry O=C(Nc1cc(Cl)ccc1Cl)c1ccc2cccnc2c1O : 5.00 to 6.00

In plain terms, O=C(Nc1ccc([N+](=O)[O-])cc1Cl)c1ccc2cccnc2c1O has a documented pIC50 of 6.00 to 7.00

Documented pIC50 of O=C(Nc1ccc(C(F)(F)F)cc1)c1ccc2cccnc2c1O : 6.00 to 7.00

pIC50 for N#Cc1ccc(Cl)c(NC(=O)c2ccc3cccnc3c2O)c1 is 6.00 to 7.00

Given item N#Cc1cc(Cl)ccc1NC(=O)c1ccc2cccnc2c1O , the value recorded as its pIC50 is 6.00 to 7.00
